Assay: in vitro
Assay type: in vitro ADME, human
Settings: human, Caco-2, Papp B-A avg

{"columns": ["compound", "Papp B→A (×10⁻⁶ cm/s)"],
 "data": [
  ["C[C@H]1O[C@@H](O[C@H]2[C@@H](O)C[C@H](O[C@H]3[C@@H](O)C[C@H](O[C@H]4CC[C@@]5(C)[C@H](CC[C@@H]6[C@@H]5C[C@@H](O)[C@]5(C)[C@@H](C7=CC(=O)OC7)CC[C@]65O)C4)O[C@@H]3C)O[C@@H]2C)C[C@H](O)[C@@H]1O [Digoxin, reference compound]", 29.5]
]}

====

Assay: in vivo
Conditions: male, Sprague-Dawley, rat, sc
Starred links: 1 amine or outer side, 2 acyl side, 3 side chain; linkers in the order of their positions; H or OH if unused. Non-standard residues stand in square brackets, D forms with d. Residues, ends and D or L forms follow the SMILES beside them. X10 = NCCCC[C@H](NC(=S)[C@@H](Cc1c[nH]c2ccccc12)N[*:1])C(=O)[*:2]; X7 = C[C@@H](O)[C@H](NC(=S)[C@H](CCCCN)N[*:1])C(=O)[*:2]; X8 = O=C([C@H](Cc1ccccc1)NC(=S)[C@@H]1CCCN1[*:1])[*:2]; X9 = O=C([C@@H]1CCCN1C(=S)[C@H](Cc1ccccc1)N[*:1])[*:2]
Catalogue of compounds with associated half-life

{"columns": ["compound", "half-life [min]"],
 "data": [
  ["C[C@@H](O)[C@@H]1NC(=O)[C@H](CCCCN)NC(=O)[C@@H](Cc2c[nH]c3ccccc23)NC(=O)[C@H](Cc2ccccc2)NC(=O)[C@@H]2CCCN2C(=O)[C@H](Cc2ccccc2)NC1=O [compound 13, cyclo(-D-Trp^1-Lys-Thr-Phe-Pro-Phe^6-)] (cyclo(PF[dW]KTF))", 18],
  ["C[C@@H](O)[C@@H]1NC(=O)[C@H](CCCCN)NC(=O)[C@@H](Cc2c[nH]c3ccccc23)NC(=O)[C@H](Cc2ccccc2)NC(=S)[C@@H]2CCCN2C(=O)[C@H](Cc2ccccc2)NC1=O [13e] (cyclo(F[X8][dW]KT))", 36],
  ["C[C@@H](O)[C@@H]1NC(=S)[C@H](CCCCN)NC(=O)[C@@H](Cc2c[nH]c3ccccc23)NC(=O)[C@H](Cc2ccccc2)NC(=O)[C@@H]2CCCN2C(=O)[C@H](Cc2ccccc2)NC1=O [13b] (cyclo(FPF[dW][X7]))", 36],
  ["C[C@@H](O)[C@@H]1NC(=O)[C@H](CCCCN)NC(=O)[C@@H](Cc2c[nH]c3ccccc23)NC(=O)[C@H](Cc2ccccc2)NC(=O)[C@@H]2CCCN2C(=S)[C@H](Cc2ccccc2)NC1=O [13d] (cyclo(F[dW]KT[X9]))", 66],
  ["C[C@@H](O)[C@@H]1NC(=O)[C@H](CCCCN)NC(=S)[C@@H](Cc2c[nH]c3ccccc23)NC(=O)[C@H](Cc2ccccc2)NC(=O)[C@@H]2CCCN2C(=O)[C@H](Cc2ccccc2)NC1=O [13a] (cyclo(FPF[X10]T))", 42]
]}

====

Experiment: in vitro
Settings: human, microsomes
Starred links: 1 amine or outer side, 2 acyl side, 3 side chain; linkers in the order of their positions; H or OH if unused. Non-standard residues stand in square brackets, D forms with d. Residues, ends and D or L forms follow the SMILES beside them. X6 = O=C([C@H](Cc1ccc(O)cc1)NC(=S)[C@H]1CCCN1[*:1])[*:2]; X3 = CC(C)C[C@H](N[*:1])C(=S)N[C@H](CC(C)C)C(=O)[*:2]; X4 = CC(C)C[C@H](N[*:1])C(=S)N1CCC[C@@H]1C(=O)[*:2]; NMeL = CN[C@@H](CC(C)C)C(=O)O
Catalogue of compounds with associated remaining at 0.75 h
measurement-label: remaining at 0.75 h (%)

{"columns": ["compound", "measurement-label", "val"],
 "data": [
  ["CC(C)C[C@@H]1NC(=O)[C@H](Cc2ccc(O)cc2)NC(=O)[C@H]2CCCN2C(=O)[C@H](CC(C)C)N(C)C(=O)[C@H](CC(C)C)NC(=O)[C@@H](CC(C)C)NC1=O [10i] (cyclo(L[NMeL][dP]YL[dL]))", "remaining at 0.75 h", 12],
  ["CC(C)C[C@@H]1NC(=O)[C@H](Cc2ccc(O)cc2)NC(=O)[C@H]2CCCN2C(=O)[C@H](CC(C)C)NC(=O)[C@H](CC(C)C)NC(=O)[C@@H](CC(C)C)NC1=O [compound 10, cyclo(-D-Leu^1-Leu-Leu-D-Pro-Tyr-Leu^6-)] (cyclo(LL[dP]YL[dL]))", "remaining at 0.75 h", 22],
  ["CC(C)C[C@@H]1NC(=O)[C@@H](CC(C)C)NC(=O)[C@H](CC(C)C)N(C)C(=O)[C@H](Cc2ccc(O)cc2)NC(=O)[C@H]2CCCN2C(=O)[C@H](CC(C)C)NC1=O [10k] (cyclo(LL[dP]Y[NMeL][dL]))", "remaining at 0.75 h", 4.69],
  ["CC(C)C[C@@H]1NC(=O)[C@H](Cc2ccc(O)cc2)NC(=S)[C@H]2CCCN2C(=O)[C@H](CC(C)C)NC(=O)[C@H](CC(C)C)NC(=O)[C@@H](CC(C)C)NC1=O [10d] (cyclo(LL[X6]L[dL]))", "remaining at 0.75 h", 40],
  ["CC(C)C[C@@H]1NC(=O)[C@@H](CC(C)C)NC(=S)[C@H](CC(C)C)NC(=O)[C@H](Cc2ccc(O)cc2)NC(=O)[C@H]2CCCN2C(=O)[C@H](CC(C)C)NC1=O [10f] (cyclo(LL[dP]Y[X3]))", "remaining at 0.75 h", 48],
  ["CC(C)C[C@@H]1NC(=O)[C@H](Cc2ccc(O)cc2)NC(=O)[C@H]2CCCN2C(=S)[C@H](CC(C)C)NC(=O)[C@H](CC(C)C)NC(=O)[C@@H](CC(C)C)NC1=O [10c] (cyclo(L[dL]L[X4]Y))", "remaining at 0.75 h", 16]
]}

====

Catalogue of compounds with associated remaining at 10 min
Molecular target: pepsin (Sus scrofa, UniProt P00791)
Sequence (P00791 60-385): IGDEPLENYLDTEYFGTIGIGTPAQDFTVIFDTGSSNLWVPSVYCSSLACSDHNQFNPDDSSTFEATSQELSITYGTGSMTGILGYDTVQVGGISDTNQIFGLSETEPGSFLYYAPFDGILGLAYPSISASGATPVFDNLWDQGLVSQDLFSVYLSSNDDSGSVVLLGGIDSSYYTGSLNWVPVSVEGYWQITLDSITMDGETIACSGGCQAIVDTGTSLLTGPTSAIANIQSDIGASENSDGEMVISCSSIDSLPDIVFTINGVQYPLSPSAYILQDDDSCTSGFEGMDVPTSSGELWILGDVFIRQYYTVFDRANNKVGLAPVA
Assay: in vitro
Conditions: simulated gastric fluid, pH 1.2
Starred links: 1 amine or outer side, 2 acyl side, 3 side chain; linkers in the order of their positions; H or OH if unused. Non-standard residues stand in square brackets, D forms with d. Residues, ends and D or L forms follow the SMILES beside them. X1 = CC(C)C[C@H](NC(=S)[C@H](Cc1ccc(O)cc1)N[*:1])C(=O)[*:2]; X5 = CC(C)C[C@H](NC(=S)[C@H](CC(C)C)N[*:1])C(=O)[*:2]; NMeY = CN[C@@H](Cc1ccc(O)cc1)C(=O)O; NMeL = CN[C@@H](CC(C)C)C(=O)O
measurement-label: remaining at 10 min (%)

{"columns": ["compound", "val"],
 "data": [
  ["CC(C)C[C@@H]1NC(=O)[C@H](Cc2ccc(O)cc2)NC(=O)[C@H]2CCCN2C(=O)[C@H](CC(C)C)N(C)C(=O)[C@H](CC(C)C)NC(=O)[C@@H](CC(C)C)NC1=O [10i] (cyclo(L[NMeL][dP]YL[dL]))", 58],
  ["CC(C)C[C@@H]1NC(=O)[C@H](Cc2ccc(O)cc2)NC(=O)[C@H]2CCCN2C(=O)[C@H](CC(C)C)NC(=S)[C@H](CC(C)C)NC(=O)[C@@H](CC(C)C)NC1=O [10b] (cyclo(L[dL][X5][dP]Y))", 57],
  ["CC(C)C[C@@H]1NC(=O)[C@@H](CC(C)C)NC(=O)[C@H](CC(C)C)NC(=S)[C@H](Cc2ccc(O)cc2)NC(=O)[C@H]2CCCN2C(=O)[C@H](CC(C)C)NC1=O [10e] (cyclo(LL[dP][X1][dL]))", 78],
  ["CC(C)C[C@@H]1NC(=O)[C@@H](CC(C)C)NC(=O)[C@H](CC(C)C)NC(=O)[C@H](Cc2ccc(O)cc2)N(C)C(=O)[C@H]2CCCN2C(=O)[C@H](CC(C)C)NC1=O [10j] (cyclo(LL[dP][NMeY]L[dL]))", 78]
]}

====

Type: physicochemical
Starred links: 1 amine or outer side, 2 acyl side, 3 side chain; linkers in the order of their positions; H or OH if unused. Non-standard residues stand in square brackets, D forms with d. Residues, ends and D or L forms follow the SMILES beside them. X10 = NCCCC[C@H](NC(=S)[C@@H](Cc1c[nH]c2ccccc12)N[*:1])C(=O)[*:2]; X7 = C[C@@H](O)[C@H](NC(=S)[C@H](CCCCN)N[*:1])C(=O)[*:2]; X2 = CC(C)C[C@H](NC(=S)[C@@H](CC(C)C)N[*:1])C(=O)[*:2]; X3 = CC(C)C[C@H](N[*:1])C(=S)N[C@H](CC(C)C)C(=O)[*:2]; X4 = CC(C)C[C@H](N[*:1])C(=S)N1CCC[C@@H]1C(=O)[*:2]

{"columns": ["compound", "logD heptane ethylene glycol"],
 "data": [
  ["C[C@@H](O)[C@@H]1NC(=S)[C@H](CCCCN)NC(=O)[C@@H](Cc2c[nH]c3ccccc23)NC(=O)[C@H](Cc2ccccc2)NC(=O)[C@@H]2CCCN2C(=O)[C@H](Cc2ccccc2)NC1=O [13b] (cyclo(FPF[dW][X7]))", -0.83],
  ["CC(C)C[C@@H]1NC(=O)[C@@H](CC(C)C)NC(=S)[C@H](CC(C)C)NC(=O)[C@H](Cc2ccc(O)cc2)NC(=O)[C@H]2CCCN2C(=O)[C@H](CC(C)C)NC1=O [10f] (cyclo(LL[dP]Y[X3]))", 1.08],
  ["CC(C)C[C@@H]1NC(=O)[C@H](Cc2ccc(O)cc2)NC(=O)[C@H]2CCCN2C(=S)[C@H](CC(C)C)NC(=O)[C@H](CC(C)C)NC(=O)[C@@H](CC(C)C)NC1=O [10c] (cyclo(L[dL]L[X4]Y))", 0.72],
  ["CC(C)C[C@@H]1NC(=O)[C@H](Cc2ccc(O)cc2)NC(=O)[C@H]2CCCN2C(=O)[C@H](CC(C)C)NC(=O)[C@H](CC(C)C)NC(=S)[C@@H](CC(C)C)NC1=O [10a] (cyclo(L[dP]YL[X2]))", 0.97],
  ["C[C@@H](O)[C@@H]1NC(=O)[C@H](CCCCN)NC(=S)[C@@H](Cc2c[nH]c3ccccc23)NC(=O)[C@H](Cc2ccccc2)NC(=O)[C@@H]2CCCN2C(=O)[C@H](Cc2ccccc2)NC1=O [13a] (cyclo(FPF[X10]T))", -0.94],
  ["C[C@@H](O)[C@@H]1NC(=O)[C@H](CCCCN)NC(=O)[C@@H](Cc2c[nH]c3ccccc23)NC(=S)[C@H](Cc2ccccc2)NC(=O)[C@@H]2CCCN2C(=O)[C@H](Cc2ccccc2)NC1=O [13f]", -0.91]
]}
